# ASSAYED TARGET: Human immunodeficiency virus type 1 protease (Human immunodeficiency virus 1, UniProt Q72874)
QUANTITY NAME: Ki (nM)

Worked cases, Ki given:
COMPOUND | OBS VALUE
CC(=O)Nc1ccc(S(=O)(=O)N(CC(C)C)C[C@@H](O)[C@H](Cc2ccccc2)NC(=O)O[C@H]2CO[C@H]3OCC[C@H]32)cc1 | 0.0006
CC(C)CN(C[C@@H](O)[C@H](Cc1ccccc1)NC(=O)O[C@H]1CO[C@H]2OCC[C@H]21)S(=O)(=O)c1ccc(NC(=O)[C@@H](N)C(C)C)cc1 | 0.445
CCNCC(=O)Nc1ccc(S(=O)(=O)N(CC(C)C)C[C@@H](O)[C@H](Cc2ccccc2)NC(=O)O[C@H]2CO[C@H]3OCC[C@H]32)cc1 | 0.0091

(1) CC(C)CN(C[C@@H](O)[C@H](Cc1ccccc1)NC(=O)O[C@H]1CO[C@H]2OCC[C@H]21)S(=O)(=O)c1ccc(NC(=O)[C@H](NC(=O)OC(C)(C)C)C(C)C)cc1
(2) CC(C)CN(C[C@@H](O)[C@H](Cc1ccccc1)NC(=O)O[C@H]1CO[C@H]2OCC[C@H]21)S(=O)(=O)c1ccc(NC(=O)CNC(C)C)cc1
Asked: // compare measured Ki between 1 and 2 ; output the lower one Label of pick, please.
Given back: 2

(I) CC(C)CN(C[C@@H](O)[C@H](Cc1ccccc1)NC(=O)O[C@H]1CO[C@H]2OCC[C@H]21)S(=O)(=O)c1ccc(NC(=O)CN)cc1
(II) CCN(CC)CC(=O)Nc1ccc(S(=O)(=O)N(CC(C)C)C[C@@H](O)[C@H](Cc2ccccc2)NC(=O)O[C@H]2CO[C@H]3OCC[C@H]32)cc1
(III) CC(C)CN(C[C@@H](O)[C@H](Cc1ccccc1)NC(=O)O[C@H]1CO[C@H]2OCC[C@H]21)S(=O)(=O)c1ccc(NC(=O)CN[C@H](C)c2ccccc2)cc1
(IV) CC(C)CN(C[C@@H](O)[C@H](Cc1ccccc1)NC(=O)O[C@H]1CO[C@H]2OCC[C@H]21)S(=O)(=O)c1ccc(NC(=O)CN(C)C)cc1
(V) CC(C)CN(C[C@@H](O)[C@H](Cc1ccccc1)NC(=O)O[C@H]1CO[C@H]2OCC[C@H]21)S(=O)(=O)c1ccc(NC(=O)[C@@H](NC(=O)OC(C)(C)C)C(C)C)cc1
Asked: I would appreciate it if you could sort these 5 compounds by Ki, starting from the smallest number. Write the labels in rank order as requested.
Given back: IV, III, I, II, V
(IV: 0.0015 nM, III: 0.0053 nM, I: 0.0921 nM, II: 0.302 nM, V: 178 nM)

(P) CC(C)CN(C[C@@H](O)[C@H](Cc1ccccc1)NC(=O)O[C@H]1CO[C@H]2OCC[C@H]21)S(=O)(=O)c1ccc(NC(=O)CCl)cc1
(Q) CC(C)CN(C[C@@H](O)[C@H](Cc1ccccc1)NC(=O)O[C@H]1CO[C@H]2OCC[C@H]21)S(=O)(=O)c1ccc(NC(=O)CNC(=O)OC(C)(C)C)cc1
Asked: // compare measured Ki between P and Q ; output the lower one Label of pick, please.
Given back: P
